System: A498 renal
protocol text: NCI-60 one-dose screen, 48 h
study conditions: 10 µM unless noted
Method: Growth inhibition of the A498 human tumor cell line is measured as a screen for anti-cancer activity. Cells are grown in 96 well plates and exposed to the test compound for 48 hours. Compounds are tested at a single concentration, which is 10^-5 M for most compounds. The reported endpoint is percent growth (GI% or GIPRCNT), where numbers from 0 - 100% represent growth inhibition, and numbers from -100% - 0 represent cell death. For example, a value of 40 represents 60% growth inhibition. […]
This is part of a sample that, as a whole, favours compounds with a hit. Of some 83,000 tested, about 20% had one in any assay. Calls of active or inactive are those of the source. How the source made its calls: active means growth percent below 10; inactive means the rest.
# output must be one of active, inactive

Worked cases, answers included:
compound	label value
COc1ccc(-c2nc3cc(C)ccc3n2CC(=O)N=Nc2c(O)[nH]c3ccc(Br)cc23)cc1	inactive
CC1[C@H]2[C@H](C[C@H]3[C@@H]4CC=C5c6sc(Nc7ccccc7F)nc6CC[C@]5(C)[C@H]4CC[C@@]32C)O[C@]12CC[C@@H](C)CO2 (stereo partly drawn)	inactive
Cc1ccccc1[C@H]1C(C(=O)c2ccc(Cl)cc2)C2(N[C@@H]1c1ccccc1)C(=O)Nc1ccc(Br)cc12 (stereo partly drawn)	inactive
Cn1nc(C(F)(F)F)cc1-c1cc(Cl)c(COc2ccc(Cl)cc2)c(-c2ccc(Cl)c(C(F)(F)F)c2)c1O	active
N/C(=N\c1nc2ccccc2s1)NC(=O)NCCCCCCO	inactive
CN(C)CCn1c2ccccc2c2nc3ccc([N+](=O)[O-])cc3nc21	active

(Q) Recorded call for CCCSc1nc(Nc2ccc(S(N)(=O)=O)cc2)c(C#N)c(-c2cc(OC)c(OC)c(OC)c2)n1 ?
(A) inactive

(Q) Recorded call for COc1cc2c3c(n(CCCN4CCC[C@@H]4CO)c(=O)c2cc1OC)-c1cc2c(cc1C3=O)OCO2 ?
(A) inactive

---

Test system: TK-10 renal
protocol text: NCI-60 one-dose screen, 48 h
study conditions: 10 µM unless noted
The panel holds about 83,000 compounds, 20% with a hit somewhere; the sample as a whole holds those more often. The source made the active and inactive calls. Rule for the calls: active = growth percent below 10; inactive = the rest.
# output must be one of active, inactive

Worked cases, answers included:
molecule	label value
N/C(=N\c1nc2ccccc2s1)NC(=O)NCCCCCCO	inactive
O=C1N/C(=N\c2nccs2)S/C1=C\C=C/c1ccccc1	inactive
CN(C)c1nc(NCCNS(=O)(=O)c2ccc(C3=Nc4c(N)nc(N)nc4NC(c4ccc(F)cc4)C3)cc2)nc(Nc2ccc(F)cc2)n1 (centres undefined)	inactive
O=C(NN1C(=O)/C(=C/C=C/c2ccc([N+](=O)[O-])o2)SC1=S)c1ccccc1O	active

(Q) Recorded call for O=c1[nH]c2ccccc2cc1CSc1cccc(Nc2nccc(-c3ccc4ccccc4c3)n2)c1 ?
(A) inactive

(Q) Recorded call for CN1CCN(c2ccc3c(c2)nc(NNC(=O)c2ncccn2)c2cccn23)CC1 ?
(A) active

(Q) Recorded call for CC(C)C(C(=O)O)n1c(O)c(/C=C2/C=c3cc4c(cc3=NC2=O)OCO4)sc1=S (centres undefined) ?
(A) inactive

(Q) Recorded call for CCCn1cc(-c2nc(Nc3ccc(C(=O)NCCCCNc4cccc5c4C(=O)N(C4CCC(=O)NC4=O)C5=O)cc3)nc3[nH]ccc23)cn1 (centres undefined) ?
(A) inactive

(Q) Recorded call for N#Cc1c(-c2cccc(Cl)c2Cl)cc(-c2ccc3ccccc3c2)[nH]c1=O ?
(A) inactive
